Here the recorded IC50 at 72 h is given for each entry.
TEST: Cytotoxicity against mouse NIH/3T3 cells assessed as reduction in cell viability after 72 hrs by MTT assay
Assay type: toxicity, cell-based, NIH3T3
Give the quantity in µM, number only.

Solved entries:
{"ENTRY_SMILES": "Cc1c2c[n+](C)ccc2c(C(=O)NCCCCCN)c2[nH]c3ccccc3c12", "MEASUREMENT_TYPE": "IC50 at 72 h", "NUMERIC_READOUT": 32}
{"ENTRY_SMILES": "Cc1c2c[n+](C)ccc2c(C(=O)NCCNCCN)c2[nH]c3ccccc3c12", "MEASUREMENT_TYPE": "IC50 at 72 h", "NUMERIC_READOUT": 86}
{"ENTRY_SMILES": "COC(=O)c1c2cc[n+](CCOCCN)cc2c(C)c2c1[nH]c1ccccc12.[Cl-]", "MEASUREMENT_TYPE": "IC50 at 72 h", "NUMERIC_READOUT": 1.75}
{"ENTRY_SMILES": "Cc1c2cc[n+](C)cc2c(C)c2c1[nH]c1ccccc12", "MEASUREMENT_TYPE": "IC50 at 72 h", "NUMERIC_READOUT": 2}
{"ENTRY_SMILES": "CNC(=O)NCCCCCNC(=O)c1c2cc[n+](C)cc2c(C)c2c1[nH]c1ccccc12", "MEASUREMENT_TYPE": "IC50 at 72 h", "NUMERIC_READOUT": 37}
{"ENTRY_SMILES": "Cc1c2c[n+](C)ccc2c(C(=O)NCCN)c2[nH]c3ccccc3c12", "MEASUREMENT_TYPE": "IC50 at 72 h", "NUMERIC_READOUT": 70}
{"ENTRY_SMILES": "Cc1c2ccncc2c(C)c2c1[nH]c1ccc(O)cc12", "MEASUREMENT_TYPE": "IC50 at 72 h", "NUMERIC_READOUT": 0.9}
{"ENTRY_SMILES": "CNC(=O)NCCOCC[n+]1ccc2c(C)c3[nH]c4ccc(O)cc4c3c(C)c2c1.[Cl-]", "MEASUREMENT_TYPE": "IC50 at 72 h", "NUMERIC_READOUT": 5}

Let us examine a further case.
Inquiry: Report measured IC50 at 72 h; entry is CNC(=O)NCCNC(=O)c1c2ccncc2c(C)c2c1[nH]c1ccccc12
Reply text: 11

---

TEST: Cytotoxicity against mouse Sarcoma 180 cells assessed as reduction in cell viability after 72 hrs by MTT assay
Type: functional, cell-based
PARTICULARS: Sarcoma-180, 72 h
IC50 listing for selected compounds.

{"ENTRY_SMILES": "CNC(=O)NCCNC(=O)c1c2cc[n+](C)cc2c(C)c2c1[nH]c1ccccc12", "IC50": "> 100 µM"}
{"ENTRY_SMILES": "Cc1c2c[n+](C)ccc2c(C(=O)NCCNCCN)c2[nH]c3ccccc3c12", "IC50": "> 100 µM"}

Inquiry: Please report the measured IC50 for Cc1c2c[n+](C)ccc2c(C(=O)NCCCCN)c2[nH]c3ccccc3c12
Reply text: > 100 µM

---

TEST: Cytotoxicity against mouse NIH/3T3 cells assessed as reduction in cell viability after 72 hrs by MTT assay
Type: toxicity, cell-based, NIH3T3
MEASUREMENT_TYPE: IC50 at 72 h

Observe how each entry below is paired with its result.
{"ENTRY_SMILES": "CNC(=O)NCCCCNC(=O)c1c2cc[n+](C)cc2c(C)c2c1[nH]c1ccccc12", "RESULT": "> 100 µM"}
{"ENTRY_SMILES": "CNC(=O)NCCNC(=O)c1c2cc[n+](C)cc2c(C)c2c1[nH]c1ccccc12", "RESULT": "> 100 µM"}

Proceeding to the next compound to report its IC50 at 72 h.
Inquiry: Respond only with IC50 at 72 h recorded for Cc1c2c[n+](C)ccc2c(C(=O)NCCCCN)c2[nH]c3ccccc3c12
Reply text: > 100 µM
